- EXPERIMENTAL TARGET: P-CTD/N-NTD interaction (Human respiratory syncytial virus A, UniProt P03418)
- Construct: N N-terminal region (N-NTD, residues 31 to 252); made in house; host or cells: E. coli BL21(DE3)
- Sequence (P03418 31-252): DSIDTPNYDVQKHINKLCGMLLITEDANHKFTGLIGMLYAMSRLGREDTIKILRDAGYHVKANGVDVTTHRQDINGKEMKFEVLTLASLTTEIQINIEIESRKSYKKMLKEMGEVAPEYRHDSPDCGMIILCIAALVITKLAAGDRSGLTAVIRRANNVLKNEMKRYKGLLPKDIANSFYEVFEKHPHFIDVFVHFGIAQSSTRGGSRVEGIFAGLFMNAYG
- ASSAY TEXT: Surface plasmon resonance competition assay (N-NTD binding to captured GST-P-CTD)
- Parameters: species or system respiratory syncytial virus (RSV)
- CONDITION LABEL: 25° C., 20 mM TrisHCl pH 8, 150 mM NaCl, N-NTD 20 μM; read-out: Ki (inhibition of P-CTD/N-NTD interaction, SPR)
pKi: −log10 of the molar value.
Could you label it true (1) if measured pKi is 3 or higher, and false (0) otherwise?

| COMPOUND | EXPERIMENTAL TARGET | ASSIGNED LABEL |
| --- | --- | --- |
| O=C(O)c1cc(C(=O)O)n(Cc2ccc(Br)cc2)n1 [M68] | P-CTD/N-NTD interaction (Human respiratory syncytial virus A, UniProt P03418) | true (1) |
| O=C(O)c1cc(C(=O)O)n(Cc2ccccc2Cl)n1 [M81] | P-CTD/N-NTD interaction (Human respiratory syncytial virus A, UniProt P03418) | true (1) |
| O=C(O)c1cc(C(=O)O)n(Cc2ccc(Cl)cc2Cl)n1 [M76] | P-CTD/N-NTD interaction (Human respiratory syncytial virus A, UniProt P03418) | true (1) |
| O=C(O)c1cc(C(=O)O)n(Cc2ccc(F)cc2)n1 [M72] | P-CTD/N-NTD interaction (Human respiratory syncytial virus A, UniProt P03418) | false (0) |
